// reported IC50 for each item listed
tested on: H61 cells: NIH transformed 3T3 H-ras cells; test: Clonogenic assay (6 well plates, soft agar); assay type: cell-based; conditions: 312 h, colonies counted after Day 13, read-out: Clonogenic Assay IC50

Solved entries (count: 3):
* CC(CNC(=O)CN(Cc1ccc(OCc2ccccc2)cc1)C(=O)[C@H](Cc1c[nH]cn1)NC(=O)NCc1ccccc1)c1ccccc1 (stereo partly shown) | > 1000 nM
* CC(CNC(=O)CN(Cc1ccc(OCc2ccccc2)cc1)C(=O)[C@H](Cc1c[nH]cn1)NC(=O)OCc1ccccc1)c1ccccc1 (stereo partly shown) | > 1000 nM
* CC(C)(CNC(=O)CN(Cc1cccnc1)C(=O)[C@H](Cc1c[nH]cn1)NC(=O)OCc1ccccc1)c1ccccc1 | > 1000 nM

Let us move to another entry and its IC50.
Query: Recorded IC50 of O=C(CN(Cc1ccc(OCc2ccccc2)cc1)C(=O)[C@H](Cc1cnc[nH]1)NC(=O)OCc1ccccc1)NCC(O)c1ccccc1 (stereo partly shown) , please.
Response: > 1000 nM
